Listed compounds paired with reported melting point
Your answer should be a plain number; it is taken to be in °C.

Examples from the recorded data:
| COMPOUND | melting point, °C |
| --- | --- |
| CCC(C(N)=O)N1CC(CC(C)C)CC1=O (stereo not drawn) | 120.2 |
| CCCC1(C)CC(=O)N([C@@H](CC)C(N)=O)C1 (stereo partly drawn) | 133.3 |
| CCC(C(N)=O)N1CC(c2ccc(Cl)c(Cl)c2)CC1=O (stereo not drawn) [Compound 200] | 154.4 |

### Prompt What value of measured melting point is listed for CC[C@@H](C(N)=O)N1CC(CF)CC1=O (stereo partly drawn) ?
### Response 87.1

### Prompt Follow-up entry: CCC(C(N)=O)N1CC(c2ccc(Cl)cc2Cl)CC1=O (stereo not drawn)
### Response 154.7

### Prompt Follow-up entry: CC[C@@H](C(N)=O)N1CC(CI)CC1=O (stereo partly drawn) [Compound 10]
### Response 91.4
